Value source: patent US9695155B2

# System: ragweed
# TEST: Test C preemergence
# Type: in vivo, Ambrosia elatior
# TEST_CONTEXT: 62 g ai/ha, preemergence; scale 0 (no effect) to 100 (complete control)
Field 'label' (enum: label 1 / label 0). Set to label 1 when Ragweed plant response rating is strictly under 40; else label 0.

hey, is Ragweed plant response rating for Fc1cnc(Oc2cccc(C(F)F)c2-n2cc(Br)cn2)nc1 [Compound 112] lower than 40 or not? label 1

Does the reported Ragweed plant response rating of the following compound sit strictly below 40? N#Cc1cnn(-c2c(CF)cccc2Oc2ncc(F)cn2)c1 [Compound 151] label 0

Bench note: check whether N#Cc1cccc(Oc2ncc(Br)cn2)c1-n1cc(I)cn1 [Compound 88] shows Ragweed plant response rating below 40 label 1

Given FCc1cn(-c2c(F)cccc2Oc2ncc(Cl)cn2)nn1 [Compound 154] , is recorded Ragweed plant response rating strictly lower than 40? label 0
